- TARGET ENTITY: Brd2(2) (Homo sapiens)
- Construct: Plasmids of the eight single BET bromodomain constructs Brd2(1), Brd2(2), Brd3(1), Brd3(2); His6 (N); made in house; host or cells: E. coli BL21(DE3)
- ASSAY PROTOCOL: DSF thermal shift
- Format: binding
- TEST PARAMETERS: wild type
Exercise: for every item that follows, state its recorded ΔTm Brd2(2).
In your response, put the unit directly after the numeric value.

Qu. // ΔTm Brd2(2) lookup, key: COC(=O)CC1N=C(c2cc(C)ccc2C)c2cc(OC)ccc2-n2c(C)nnc21 (racemic)
Ans. 3.5 ± 0.1 K

Qu. Param item = CN1Cc2cc(NS(=O)(=O)c3ccccc3-c3ccccc3)ccc2NC1=O ; retrieve measured ΔTm Brd2(2).
Ans. 2.1 ± 0.4 K

Qu. Return reported ΔTm Brd2(2); argument: COC(=O)CC1N=C(c2ccc(Cl)c(C)c2)c2cc(OC)ccc2-n2c(C)nnc21 (racemic)
Ans. 3.2 ± 0.1 K

Qu. What measured ΔTm Brd2(2) goes with COC(=O)[C@H](CC1CC1)[C@@H]1N=C(c2ccc(Cl)cc2)c2cc(OC)ccc2-n2c(C)nnc21 (racemic) ?
Ans. 3.7 ± 0.6 K

Qu. I have this compound here, COC(=O)CC1N=C(c2ccc(Cl)cc2)c2cc(OC)cc(C)c2-n2c(C)nnc21 (stereo not shown) , and I need its recorded ΔTm Brd2(2).
Ans. 4.0 ± 0.1 K

Qu. ΔTm Brd2(2) for CN1Cc2cc(NS(=O)(=O)c3ccc(C(C)(C)C)cc3)ccc2NC1=O ?
Ans. 0.8 ± 0.1 K

Qu. Please give the measured ΔTm Brd2(2) for this compound: COc1ccc(S(=O)(=O)Nc2ccc3c(c2)CN(C)C(=O)N3)c(OC)c1
Ans. 1.6 ± 0.2 K

###

- TARGET ENTITY: Brd2 tandem with mutations on both bromodomains (LA-LA) (Homo sapiens, UniProt P25440, L110A/L383A)
- Construct: containing the first and the second bromodomain, as well as the natural linker between them; His6; SUMO (cleaved yes); made in house; host or cells: E. coli BL21(DE3)
- Sequence (P25440 71-455 L110A/L383A limits assumed): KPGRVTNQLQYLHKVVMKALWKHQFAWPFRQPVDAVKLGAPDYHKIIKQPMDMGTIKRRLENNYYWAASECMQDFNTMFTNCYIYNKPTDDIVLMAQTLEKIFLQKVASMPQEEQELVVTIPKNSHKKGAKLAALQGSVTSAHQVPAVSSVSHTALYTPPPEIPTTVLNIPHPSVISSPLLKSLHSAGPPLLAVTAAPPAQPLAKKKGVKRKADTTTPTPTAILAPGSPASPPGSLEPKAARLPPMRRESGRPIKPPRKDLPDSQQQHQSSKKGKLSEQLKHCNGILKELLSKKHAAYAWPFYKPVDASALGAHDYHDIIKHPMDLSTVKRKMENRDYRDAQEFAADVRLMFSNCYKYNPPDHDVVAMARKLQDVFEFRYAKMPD
- ASSAY PROTOCOL: ITC of compound into Brd2 tandem construct
- Type: binding
ENDPOINT NAME: Kd

Qu. Returns the measured Kd for the input compound. Input: CC[C@@H](C(=O)OC)[C@@H]1N=C(c2ccc(Cl)cc2)c2cc(OC)ccc2-n2c(C)nnc21 (racemic)
Ans. ~56 nM

###

Could you please report measured Thermal stabilisation brd2(2) for the items listed next?
- TARGET ENTITY: Brd2(2) (Homo sapiens, UniProt P25440)
- Construct: Plasmids of the eight single BET bromodomain constructs Brd2(1), Brd2(2), Brd3(1), Brd3(2); His6 (N); made in house; host or cells: E. coli BL21(DE3)
- Sequence (P25440 344-453 limits assumed): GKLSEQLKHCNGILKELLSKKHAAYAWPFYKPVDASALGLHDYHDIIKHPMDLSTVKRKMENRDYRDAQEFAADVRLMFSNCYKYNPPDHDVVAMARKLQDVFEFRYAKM
- ASSAY PROTOCOL: DSF thermal shift
- Type: binding
- TEST PARAMETERS: wild type
# unit: °C | format: bare number

Qu. Name the reported Thermal stabilisation brd2(2) value associated with the molecule COC(=O)CC1N=C(c2ccc(Cl)cc2C)c2cc(OC)ccc2-n2c(C)nnc21 (racemic)
Ans. 6.6

Qu. So what does the record say about Thermal stabilisation brd2(2) for COC(=O)CC1N=C(c2ccc(Cl)c(C)c2)c2cc(OC)ccc2-n2c(C)nnc21 (racemic) ?
Ans. 3.2

Qu. Recorded Thermal stabilisation brd2(2) for COC(=O)[C@H](C)[C@@H]1N=C(c2ccc(Cl)cc2)c2cc(OC)ccc2-n2c(C)nnc21 (racemic) , please?
Ans. 5.6

Qu. Give its Thermal stabilisation brd2(2) value. Item: COC(=O)[C@@H](C)[C@@H]1N=C(c2ccc(Cl)cc2)c2cc(OC)ccc2-n2c(C)nnc21 (racemic)
Ans. 0.2

Qu. Any idea what Thermal stabilisation brd2(2) was measured for COC(=O)CC1N=C(c2ccc(Cl)cc2)c2cc(OC)cc(C)c2-n2c(C)nnc21 (stereo not shown) ?
Ans. 4.0

Qu. May I ask what Thermal stabilisation brd2(2) has been recorded for COC(=O)CC1(C)N=C(c2ccc(Cl)cc2)c2cc(OC)ccc2-n2c(C)nnc21 (racemic) ?
Ans. 5.3

Qu. Tell me the measured Thermal stabilisation brd2(2) of COC(=O)CC1N=C(c2cc(C)ccc2C)c2cc(OC)ccc2-n2c(C)nnc21 (racemic) , please.
Ans. 3.5
